- subject_of_test: TRAFD1
- protocol_details: pooled miR-30 sensor sort-seq; sequence = guide strand; also: reference of the scale not given here
- measurement_context: shRNA
Please note: YES applies when sensor-assay potency score (higher = more potent) is 0.1 or greater, and NO applies otherwise.

Recorded results for 5 sequences are shown here.
| polymer_sequence | class |
| --- | --- |
| TTCCTGCTTAGTATCATCCAGG | NO |
| TTCTTCAAACAGATTATTCTGA | YES |
| TTGCAGTTGTCACACAGTCGAG | NO |
| TAACTGGTTACTTGCAGCCTGT | NO |
| TTTGCCTTTGCAGTTCTGCTGC | YES |

INPUT: Has `TTCTATTGTGGAAAACATCTGA` a recorded sensor-assay potency score (higher = more potent) greater than or equal to 0.1?
OUTPUT: YES

INPUT: Has `TTGGTTGGTAGTTCTATTGTGG` a recorded sensor-assay potency score (higher = more potent) greater than or equal to 0.1?
OUTPUT: NO

INPUT: Has `TGCAGTTGTCACACAGTCGAGT` a recorded sensor-assay potency score (higher = more potent) greater than or equal to 0.1?
OUTPUT: NO

INPUT: Has `TTATTCTGAATTGAAACCTGGG` a recorded sensor-assay potency score (higher = more potent) greater than or equal to 0.1?
OUTPUT: YES
